Origin of measurements: patent US8003658B2

- Test system: A431 (ATCC: CRL-1555)
- Assay: Test of cancer cell growth inhibition (SRB), A431
- Condition Context: Homo sapiens, A-431, 72 h, read-out: IC50 A431
Measure Name: pIC50
Scale for pIC50: -log10 of concentration given in mol/L; no unit attached.

pIC50 reported for this compound C=CC(=O)NCC(=O)Nc1ccc2ncnc(Nc3ccc(OCc4cccc(F)c4)c(Cl)c3)c2c1 [Example 4] : 6.75

pIC50 reported for this compound C=CC(=O)N[C@@H](CC(C)C)C(=O)Nc1ccc2ncnc(Nc3ccc(OCc4ccccn4)c(Cl)c3)c2c1 [Example 225] : 7.38

pIC50 reported for this compound C=CC(=O)N1CCC[C@H]1C(=O)Nc1cc2c(Nc3ccc(OCc4ccccn4)c(Cl)c3)ncnc2cc1F [Example 165] : 6.67

pIC50 reported for this compound C=CC(=O)N1C[C@H](O)C[C@H]1C(=O)Nc1ccc2ncnc(Nc3ccc(OCc4ccccn4)c(Cl)c3)c2c1 [Example 149] : 7.27
